Give IC50 for every item shown.
# system_tested: Calpain-2 catalytic subunit (Sus scrofa)
# Sequence (P43367 whole entry): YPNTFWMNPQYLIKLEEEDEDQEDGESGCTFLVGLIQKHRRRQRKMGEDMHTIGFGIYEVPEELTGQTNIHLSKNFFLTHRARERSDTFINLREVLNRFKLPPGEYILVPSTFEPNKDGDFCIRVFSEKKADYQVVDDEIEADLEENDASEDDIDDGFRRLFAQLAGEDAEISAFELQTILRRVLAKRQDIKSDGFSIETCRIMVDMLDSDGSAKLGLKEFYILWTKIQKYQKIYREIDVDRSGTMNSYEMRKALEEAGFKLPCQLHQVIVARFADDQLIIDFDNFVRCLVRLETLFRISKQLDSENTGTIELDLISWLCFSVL
# assay_method_text: pig calpain II inhibitor potency, dose response, biochemical, fluorogenic peptide substrate (AID 1420)
# Type: functional
Activity calls are given as the source filed them.

-- ask # get_value(readout='IC50', item= CCCC(=O)NCc1ccccc1Cl )
-- reply 36.3 µM (not active)

-- ask Would you kindly repeat that for CCC(=O)Nc1ccc(C(=O)N2CCN(C(=O)c3ccco3)CC2)cc1 ?
-- reply 25.3 µM (not active)

-- ask Cool, now Cc1ccc(C2=NNC(=O)C(c3c[nH]c4ccccc34)C2)cc1 (configuration not stated)
-- reply 46.4 µM (not active)

-- ask Cn1c(N)c(C(=O)COC(=O)C2CCCCC2)c(=O)n(C)c1=O ?
-- reply 6.73 µM (active)

-- ask Now this one: CC(C)CC(=O)Nc1nnc(SCC(=O)Nc2ccc(F)cc2)s1
-- reply > 50 µM (not active)

-- ask Same question for Cc1ccc(N(CC(=O)NC2CCCC2)C(=O)c2ccc(C)s2)cc1 please.
-- reply > 50 µM (not active)

-- ask Another compound to look at: CC(C)CC(c1nnnn1C1CCCC1)N1CCC(C(N)=O)CC1 (configuration not stated)
-- reply > 50 µM (not active)

###

# system_tested: Heat shock factor protein 1 (Mus musculus)
# Sequence (P38532 whole entry): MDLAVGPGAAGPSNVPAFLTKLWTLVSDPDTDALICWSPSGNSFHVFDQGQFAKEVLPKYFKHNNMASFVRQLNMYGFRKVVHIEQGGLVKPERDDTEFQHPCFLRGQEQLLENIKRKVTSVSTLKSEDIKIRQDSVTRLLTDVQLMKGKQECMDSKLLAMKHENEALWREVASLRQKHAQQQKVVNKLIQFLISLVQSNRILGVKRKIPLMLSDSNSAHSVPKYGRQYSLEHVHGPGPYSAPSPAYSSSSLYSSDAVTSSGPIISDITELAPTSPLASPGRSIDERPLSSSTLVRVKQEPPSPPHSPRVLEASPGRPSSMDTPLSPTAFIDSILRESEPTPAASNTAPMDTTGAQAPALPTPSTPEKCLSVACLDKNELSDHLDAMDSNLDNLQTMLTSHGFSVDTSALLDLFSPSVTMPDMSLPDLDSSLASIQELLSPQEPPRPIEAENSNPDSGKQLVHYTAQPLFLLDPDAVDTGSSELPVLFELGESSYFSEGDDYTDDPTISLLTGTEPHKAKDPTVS
# assay_method_text: HSF1 potentiators in luciferase reporter cells, confirmation, cell-based, NIH3T3, luminescence, dose retest (AID 435004);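 further: stress induced by proteasome inhibitor MG132 added 30 min after compound; luciferase reporter driven by HSF1 response element in NIH3T3 cells; actives raise luminescence as potentiators of the MG132 stress response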
# Assay type: functional
The source made the active and inactive calls.
Return exactly one item of 1 (active), -1 (inactive)

-- ask Recorded test outcome, item Cc1nn(Cc2ccccc2Cl)c(C)c1NC(=O)CCCn1nc([N+](=O)[O-])c(Cl)c1C
-- reply -1

-- ask How about this compound: COc1cc(OC)c(N(C)S(=O)(=O)c2cccc(C(=O)Nc3nnc(C4CC4)s3)c2)cc1Cl
-- reply 1

-- ask How about this compound: CS(=O)(=O)c1sc(C#N)c2c1C(=O)CC(c1ccccc1)C2 (stereo not given)
-- reply 1

-- ask Also need CC12CN(C(S)=Nc3ccccc3)CC(C)(CN(C(S)=Nc3ccccc3)C1)C2=O , thanks.
-- reply -1

-- ask One more compound: COc1ccc(CN2CCNC(=O)C2CC(=O)NCC2CCOCC2)cc1C (stereo not given)
-- reply -1

-- ask Also CCOC(=O)C1(CCOc2ccccc2)CCN(Cc2cc(OC)c3c(c2)OCO3)CC1 , if possible.
-- reply -1

-- ask How about this compound: O=[N+]([O-])c1ccc(S(=O)(=O)N(Cc2cccnc2)Cc2cc3ccccc3nc2O)cc1
-- reply -1

-- ask Then CCOC(=O)CSC1=NC(=O)/C(=C\c2ccc(Cl)cc2)S1 ?
-- reply 1

-- ask What do you have for O=C(O)CN1C(=O)/C(=C\c2cc(Br)ccc2OCc2ccc(F)cc2)SC1=S ?
-- reply -1

-- ask Can you handle Cc1ccc(C(=O)NC(=C(Cl)Cl)S(=O)(=O)c2ccc(Cl)cc2)cc1 next?
-- reply 1
